EXPERIMENT SUMMARY: In vivo pharmacokinetics in mice
SETTINGS: mouse, plasma; mice, oral, 30mg/kg, dose escalation (Fig. 1G); read-out: Cmax/C0
OBSERVED PROPERTY: Cmax

Req: In one line, give reported Cmax of the entry Nc1nnc(-c2ccccc2O)cc1-c1ccc(N2CCC(N3CCC(c4ccc(OC5CCC(=O)NC5=O)cc4)CC3)CC2)cc1 (stereo not shown) [AU-24118] .
Resp: 1190 ng/mL

* * *

EXPERIMENT SUMMARY: In vivo pharmacokinetics in mice
SETTINGS: mouse, plasma; mice, oral, 10mg/kg, dose escalation (Fig. 1G); read-out: Cmax/C0
OBSERVED PROPERTY: Cmax (ng/mL)
# value in ng/mL; strip the unit string

Req: In one line, give reported Cmax of the entry Nc1nnc(-c2ccccc2O)cc1-c1ccc(N2CCC(N3CCC(c4ccc(OC5CCC(=O)NC5=O)cc4)CC3)CC2)cc1 (stereo not shown) .
Resp: 345
